// provenance: ChEMBL document CHEMBL2331550

procedure.text: Metabolic stability in rat liver S9 fraction assessed as compound remaining at 1 uM after 30 mins
Format: ADME, subcellular
assay.conditions: read-out: Stability
readout.label: remaining at 0.5 h, 1 µM (%)

Please review the entries below; each comes with its answer.
COc1cccc(-c2cc3c4c(c2)n(CC(=O)N(C)c2ccccc2)c(=O)n4CCC3)c1    1
CN(C(=O)Cn1c(=O)n2c3c(cc(-c4ccccn4)cc31)CCC2)c1ccccc1    0
CN(C(=O)Cn1c(=O)n2c3c(cc(-c4ccccc4)cc31)CCC2)c1ccccn1    0

I. CN(C(=O)Cn1c(=O)n2c3c(cc(-c4ccccc4)cc31)CCC2)c1cccnc1
II. CN(C(=O)Cn1c(=O)n2c3c(cc(-c4ccccc4)cc31)CCCC2)c1ccccc1
III. CN(C(=O)Cn1c(=O)n2c3c(cc(-c4ccncc4)cc31)CCC2)c1ccccc1
Challenge: Would you mind ranking these compounds by ascending remaining at 0.5 h, 1 µM? Write the labels in rank order as requested.
Response given: I, II, III

1. COc1cccc(N(C)C(=O)Cn2c(=O)n3c4c(cc(-c5ccccc5)cc42)CCC3)c1
2. CCCN(CCC)C(=O)Cn1c(=O)n2c3c(cc(-c4ccccc4)cc31)CCC2
Challenge: Please indicate which item has the smaller measured remaining at 0.5 h, 1 µM: 1 versus 2 // output: label of the selected item
Response given: 1

1. CN(C(=O)Cn1c(=O)n2c3c(cc(-c4ccccc4)cc31)CCC2)c1cccc(Cl)c1
2. CN(Cc1ccccc1)C(=O)Cn1c(=O)n2c3c(cc(-c4ccccc4)cc31)CCC2
Challenge: Which has the higher remaining at 0.5 h, 1 µM, 1 or 2 ? // output: label of the selected item
Response given: 2
(2: 1%, 1: 0%)

a. CN(C(=O)Cn1c(=O)n2c3c(cc(-c4ccc(C(F)(F)F)cc4)cc31)CCC2)c1ccccc1
b. O=C(Cn1c(=O)n2c3c(cc(-c4ccccc4)cc31)CCC2)Nc1ccccc1
Challenge: Which has the higher remaining at 0.5 h, 1 µM, a or b ? // output: label of the selected item
Response given: b
(b: 62%, a: 0%)

====

procedure.text: Metabolic stability in rat liver S9 fraction assessed as compound remaining at 1 uM after 30 mins
Assay type: ADME, subcellular
assay.conditions: read-out: Stability
readout.label: remaining at 0.5 h, 1 µM (%)

Please review the entries below; each comes with its answer.
CN(C(=O)Cn1c(=O)n2c3c(cc(-c4ccccc4)cc31)OCC2)c1ccccc1    1
CN(C(=O)Cn1c(=O)n2c3c(cc(-c4ccccc4)cc31)CCC2)c1ccccc1    12

I. CN(C(=O)Cn1c(=O)n2c3c(cc(-c4ccccc4)cc31)CCC2)c1ccncc1
II. CN(C(=O)Cn1c(=O)n2c3c(cc(Nc4cccnc4)cc31)CCC2)c1ccccc1
Challenge: Which has the higher remaining at 0.5 h, 1 µM, I or II ? // output: label of the selected item
Response given: II
(II: 41%, I: 0%)
